- Test system: TTK;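 further: KINOMEscan kinase panel screen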
- TEST PARAMETERS: concentration: 1 μM, replicates: in singlicate; n = 1
Quick reference for %Inh among some compounds
State the answer as a number, implicitly in %.

Worked examples, 3 compounds total:
%Inh for Cl.Oc1cccc(Nc2ccnc3cc(-c4ccncc4)ccc23)c1 [GW494601] ?
39

Returns the measured %Inh for the input compound. Input: COc1cc2c(cc1OCCN1CCN(C)CC1)ncc1c3ccc(C#N)cc3[nH]c21
7

Quick one: %Inh of O=c1cc(N2CCOCC2)nc2n(Cc3cccc(C(F)(F)F)c3)ccn12 [GSK2297543] ?
12

Next:
Give the measured %Inh of Cc1cn2c(=O)cc(N3CCOCC3)nc2n1Cc1cccc(Cl)c1Cl [GSK2334006] .
0

Report %Inh for NCC(NC(=O)c1cc(-c2cn[nH]c2)c(-c2ccnc3[nH]ccc23)s1)c1ccccc1.O=C(O)C(F)(F)F.O=C(O)C(F)(F)F (centres unmarked) [GSK1325775] please.
14

Tell me the measured %Inh of CC(=O)Nc1ccc(COc2ccc(Nc3ccnc4cc(-c5ccccn5)ccc34)cc2)cc1.Cl [GW440148] , please.
0

// query %Inh value for entry O=C1NC(=O)C(N2CCc3ccccc32)=C1c1cccc(Cl)c1 [SB-408010]
39

Give its %Inh value. Item: N#Cc1ccc(-c2cc(-c3c[nH]nc3-c3ccccn3)ccn2)cc1 [GW693028]
3
